system: EKVX NSCLC; experiment: NCI tumour cell line growth inhibition, 48 h
endpoint-label: GI50

O=C([CH-]C(=O)C(F)(F)F)c1ccccc1.O=C([CH-]C(=O)C(F)(F)F)c1ccccc1.[O]=[U+2]=[O] ... 22.3 µM
CCCCCC[n+]1noc(N)c1-c1ccc(-c2c(N)on[n+]2CCCCCC)cc1 ... 7.71 µg/mL
O=C1c2ccccc2S(=O)(=O)N1CSC(=S)N1CCOCC1 ... > 100 µM
CCNC(=O)N1CCc2c(Cl)c3c(c(OC)c2[C@@H]1[C@H]1OCc2c1ccc(OC)c2OC)OCCO3 ... 4.18 µM
COc1ccc(C(O)c2cc3c(N)c(C(=O)Nc4ccccc4)sc3nc2C)cc1 (centres undefined) ... 0.0617 µM
C=C(C)[C@@H]1CC[C@]2(C(N)=O)CC[C@]3(C)[C@H](CC[C@@H]4[C@@]5(C)C/C(=C/c6cccnc6)C(=O)C(C)(C)[C@@H]5CC[C@]43C)[C@@H]12 ... 4.99 µM
CCNCCNc1cc(-c2ccc(Cl)c(Cl)c2)c(C#N)c2nc3ccccc3n12 ... 1.75 µM
O=S(=O)(Nc1ccc2ccccc2c1)N1CCCCC1 ... 7.99 µM

Turning now to a further molecule:
Query: If you can, please state the reported GI50 value of "CCCCCCCCn1ccc2cc(NC(=O)Cn3cc(CN4CCN(CC)CC4)nn3)ccc21" .
Result: 1.81 µM

---

tested on: OVCAR-5 ovarian; experiment: NCI tumour cell line growth inhibition, 48 h
endpoint-label: TGI

CCCCCCC1=NOC(C(c2cc[nH]c2)N(C)[C@H](C(=O)OC)C(C)C)C1 (stereo not given in full) ... > 100 µM
CCCCCCCCn1ccc2cc(NC(=O)Cn3cc(CN4CCN(CC)CC4)nn3)ccc21 ... 6.39 µM
O=C(OC1C(Oc2ccccc2COC(=O)C2(O)C=CCCC2=O)OC(CO)C(O)C1O)c1ccccc1 (stereo not given) ... > 100 µM
O=S(=O)(Nc1nc2ccccc2n1S(=O)(=O)c1ccccc1)c1ccccc1 ... > 100 µM
CN1C(=O)N(C)C2(O)c3ccccc3C(=O)C12O (stereo not given) ... > 100 µM
COC(=O)C(/C(=N/NC(N)=O)C(=O)Nc1c(C)cccc1C(C)(C)C)c1nc2ccc(Cl)cc2[nH]c1=O (stereo not given) ... > 100 µM
NS(=O)(=O)c1ccc(N=Nc2c(O)[nH]c3ccc(Cl)cc23)cc1 ... > 25 µM
O=S(=O)(Nc1nccs1)c1ccc(Nc2nc(-c3cccs3)nc3ccc(I)cc23)cc1 ... 86.3 µM
CCC(=O)NC(Nc1ccccc1F)(C(F)(F)F)C(F)(F)F ... > 100 µM

Continue with the next molecule.
Query: Value lookup for TGI; key = "COc1ccc(/C=C2\C(=O)NC(=O)c3ccccc32)cc1OC"
Result: > 100 µM

---

system: A549 NSCLC; test: NCI tumour cell line growth inhibition, 48 h
Recorded TGI for the following compounds

These solved cases illustrate the format of a correct answer.
Nc1nc2c3c(ncn3CC(O)CO2)n1 (stereo unspecified) ... > 100 µM
COc1cc2c(cc1OCCCCCN1CCN(CCCCCOc3cc4c(cc3OC)C(=O)C3CCC[C@H]3C=N4)CC1)N=C[C@@H]1CCCC1C2=O (stereo partly specified) ... > 51.8 µM
CCOC(=O)c1ccc(C(=O)/C(C#N)=C2\CCCN2)n1C ... > 100 µM

Query: API: value(readout= TGI, system= A549 NSCLC, query= CCOc1ccc(C2Oc3c(cccc3OC)C=C2[N+](=O)[O-])cc1OCC (stereo unspecified) )
Result: 49.4 µM

Query: Field entry: CCOP(=O)(OCC)C(C)(CC)NC1=NC(C(F)(F)F)(C(F)(F)F)NC(=O)N1 (stereo unspecified)
Result: > 100 µM

Query: Please give the result for CN1CCC(CN2c3ccccc3Sc3ccccc32)C1 (stereo unspecified) too.
Result: 32.2 µM

---

test system: OVCAR-8 ovarian; experiment: NCI tumour cell line growth inhibition, 48 h
endpoint-label: TGI

# annotated cases, reported TGI shown
CN(C)N=Nc1cn[nH]c1C(N)=O ... > 100 µM
CC(C)(C(=O)NCC(F)(F)C(F)(F)F)C(=O)N[C@@H]1C(=O)Nc2ccccc2-c2ccccc21 ... > 100 µM
N#CNC(=NCc1ccccc1)NCc1ccccc1 ... > 100 µM

Query: I'd like to know its TGI. The compound in question is "N/N=c1\c2ccccc2c2ccc3c4ccccc4/c(=N\N)c3c12"
Result: > 100 µM

---

tested on: HOP-62 NSCLC; assay: NCI tumour cell line growth inhibition, 48 h
Listed here are compounds together with their documented TGI.

Query: Can you share its TGI? I mean this compound: "O=C(NCCn1ccnn1)Nc1ccccc1"
Result: > 100 µM

---

system: MOLT-4 leukemia; assay: NCI tumour cell line growth inhibition, 48 h; in the data active = GI50 below about 0.43 µM; inactive = the rest
Choose the fitting class; nothing outside active, inactive is accepted.

Worked set:
C#CC#CC#CC#CC#CC#CC#CC#CC[C@@H]1OC[C@H](COC(=O)O[C@@H](C(=O)O[C@H]2C[C@@]3(O)[C@@H](OC(=O)c4ccccc4)[C@@H]4[C@]5(OC(C)=O)CO[C@@H]5C[C@H](O)[C@@]4(C)C(=O)[C@H](OC(C)=O)C(=C2C)C3(C)C)[C@@H](NC(=O)c2ccccc2)c2ccccc2)O1 ... inactive
COc1ccc(C(O)c2cc3c(N)c(C(=O)Nc4ccccc4)sc3nc2C)cc1 (configuration not stated) ... active
O=C1c2ccccc2S(=O)(=O)N1CSC(=S)N1CCOCC1 ... inactive
CCCCCCC(O)(c1ccc(F)cc1)C(CN1CCOCC1)c1ccccc1 (configuration not stated) ... inactive
CCNC(=O)N1CCc2c(Cl)c3c(c(OC)c2[C@@H]1[C@H]1OCc2c1ccc(OC)c2OC)OCCO3 ... inactive

Query: For this compound, state the assay outcome: "O=C(Nc1ccccc1C(=O)N/N=C(\c1ccccc1)c1ccccn1)c1ccccc1"
Result: inactive

Query: Can you handle "CCOC(=O)c1cc(C(=O)c2cc(OC)c(OC)c(OC)c2)n2nc(C)ccc12" next?
Result: active

Query: // query: "COc1ccc(/C=C(/C(=O)N2CCCCC2)c2cc(OC)c(OC)c(OC)c2)cc1"
Result: inactive

Query: What do you get for "COC(=O)N[C@H]1C=C[C@@H]2/C=C(C)/C=C/[C@@H](C)[C@H]([C@H](C)[C@H](O)[C@@H](C)NC(C)=O)OC(=O)/C=C/C=C(C)\C=C\[C@]2(C)C1" ?
Result: inactive

Query: Also, "O=S(=O)(Nc1cc(F)cc(F)c1)c1ccc(-c2cnc(C3CC3)o2)cc1" please.
Result: inactive

Query: // query: COC(=O)C(C)NP(=O)(OCc1ccc(Cn2cnc3c(N)ncnc32)cc1)Oc1ccccc1 (configuration not stated)
Result: inactive

Query: Subsequent entry: "Cc1cccc(-n2cnc3cc(C(=O)N4CCCCC4)ccc32)c1"
Result: inactive

Query: One more compound: "CC[O-].CC[O-].CN(C)c1ccc([O-])cc1.CN(C)c1ccc([O-])cc1.[Ti+4]"
Result: inactive

Query: Proceed to "O=c1[nH]nc(-c2nn(-c3ccc(Cl)cc3)cc2O)o1"
Result: active

Query: Then this compound: "O=C([CH-]C(=O)C(F)(F)F)c1ccccc1.O=C([CH-]C(=O)C(F)(F)F)c1ccccc1.[O]=[U+2]=[O]"
Result: inactive

Query: Now the compound "CC[N-]c1nnnn1CC.[Au+].c1ccc([PH+](c2ccccc2)c2ccccc2)cc1"
Result: inactive

Query: Follow-up item: "CCOc1ccccc1C(=O)/C=C/c1cc2ccccc2[nH]c1=O"
Result: active

---

system: SW-620 colon; assay: NCI tumour cell line growth inhibition, 48 h; in the data active = GI50 below about 0.43 µM; inactive = the rest
The reply should be one of these categories: active, inactive

Please review the following examples before continuing.
CC(C)(C(=O)NCC(F)(F)C(F)(F)F)C(=O)N[C@@H]1C(=O)Nc2ccccc2-c2ccccc21 ... inactive
C=C(C)[C@@H]1CC[C@]2(C(N)=O)CC[C@]3(C)[C@H](CC[C@@H]4[C@@]5(C)C/C(=C/c6cccnc6)C(=O)C(C)(C)[C@@H]5CC[C@]43C)[C@@H]12 ... inactive
C#CC#CC#CC#CC#CC#CC#CC#CC[C@@H]1OC[C@H](COC(=O)O[C@@H](C(=O)O[C@H]2C[C@@]3(O)[C@@H](OC(=O)c4ccccc4)[C@@H]4[C@]5(OC(C)=O)CO[C@@H]5C[C@H](O)[C@@]4(C)C(=O)[C@H](OC(C)=O)C(=C2C)C3(C)C)[C@@H](NC(=O)c2ccccc2)c2ccccc2)O1 ... inactive
Fc1ccc(-c2ncn(C3CCNCC3)c2-c2ccnc(Oc3cccc(C(F)(F)F)c3)n2)cc1 ... inactive
CCOC(=O)c1cc(C(=O)c2cc(OC)c(OC)c(OC)c2)n2nc(C)ccc12 ... active

Pending compound:
Query: Recorded test outcome, item "O=C([CH-]C(=O)C(F)(F)F)c1ccccc1.O=C([CH-]C(=O)C(F)(F)F)c1ccccc1.[O]=[U+2]=[O]"
Result: inactive
